measurement_type: IC50

Please report IC50 with human CARM1 (PRMT4) (Homo sapiens (Human)) for item CCS(=O)(=O)N1CCN(c2nc(-c3cccc(OCC(O)CNC)c3)nc(NC3CCOCC3)c2C)CC1 (stereo not drawn) .
Sequence (Q86X55 other isoform, or with tags, fused parts or gaps isoform Q86X55-1): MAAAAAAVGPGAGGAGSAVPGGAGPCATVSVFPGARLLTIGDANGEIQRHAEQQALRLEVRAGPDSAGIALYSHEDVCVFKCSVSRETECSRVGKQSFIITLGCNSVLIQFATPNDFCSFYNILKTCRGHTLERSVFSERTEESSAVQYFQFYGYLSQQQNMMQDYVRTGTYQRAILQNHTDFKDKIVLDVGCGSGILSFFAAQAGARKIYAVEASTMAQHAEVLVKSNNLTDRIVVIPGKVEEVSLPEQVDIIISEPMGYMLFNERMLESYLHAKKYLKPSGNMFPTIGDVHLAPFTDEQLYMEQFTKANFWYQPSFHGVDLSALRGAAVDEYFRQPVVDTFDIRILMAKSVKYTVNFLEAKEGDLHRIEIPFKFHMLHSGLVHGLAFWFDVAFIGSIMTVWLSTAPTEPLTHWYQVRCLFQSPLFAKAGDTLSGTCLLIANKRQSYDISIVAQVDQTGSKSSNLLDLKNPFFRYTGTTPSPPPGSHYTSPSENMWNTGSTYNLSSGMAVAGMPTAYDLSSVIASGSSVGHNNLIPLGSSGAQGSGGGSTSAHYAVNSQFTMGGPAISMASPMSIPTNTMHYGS
0.1 to 1 µM

Please indicate recorded IC50 of CNCC(O)COc1cccc(-c2nc(NCC3CCNCC3)cc(-c3ccncc3)n2)c1 (stereo not drawn) measured with human CARM1 (PRMT4) (Homo sapiens (Human)).
0.1 to 1 µM

Provide the reported IC50 (system: human CARM1 (PRMT4) (Homo sapiens (Human))) for CNCC(O)COc1cccc(-c2nc(NCC3(CCl)CCOCC3)cc(N(C)C3CCOCC3)n2)c1 (stereo not drawn)
0.1 to 1 µM

Provide measured IC50 on human CARM1 (PRMT4) (Homo sapiens (Human)) for CCN1CCN(c2nc(-c3cccc(OCC(O)CNC)c3)nc(NC3CCOCC3)c2C)CC1 (stereo not drawn) please.
0.1 to 1 µM

Enter recorded IC50 with human CARM1 (PRMT4) (Homo sapiens (Human)) for CNCC(O)COc1cccc(-c2nc(NC3CCOCC3)cc(-c3cncnc3)n2)c1 (stereo not drawn) here.
0.1 to 1 µM

Would you please give the reported IC50 of CNCC(O)COc1cccc(-c2nc(-c3c(C)noc3C)c(C)c(N3CCO[C@H](CN(C)C(=O)N(C)C)C3)n2)c1 (stereo partly drawn) with human CARM1 (PRMT4) (Homo sapiens (Human))?
0.1 to 1 µM

Give the observed IC50 of CCN(c1nc(-c2cccc(OCC(O)CNC)c2)nc(NC2CCOCC2)c1C)C1CCOCC1 (stereo not drawn) for human CARM1 (PRMT4) (Homo sapiens (Human)).
1 to 3 µM

Give IC50 only, for CNCC(O)COc1cccc(-c2nc(N[C@H]3CCOC3)c(C)c(C3CCOCC3)n2)c1 (stereo partly drawn) , using human CARM1 (PRMT4) (Homo sapiens (Human)) data.
0.1 to 1 µM

Report IC50 from human CARM1 (PRMT4) (Homo sapiens (Human)) testing of CNCC(O)COc1cccc(-c2nc(NCCOC)cc(-c3ccc(C(F)(F)F)nc3)n2)c1 (stereo not drawn)
0.1 to 1 µM

Jot down IC50 (human CARM1 (PRMT4) (Homo sapiens (Human))) of CNCC(O)COc1cccc(-c2nc(N3CCN(CC(F)F)[C@@H](C)C3)cc(N(C)C3CCOCC3)n2)c1 (stereo partly drawn) .
0.1 to 1 µM

Tell me IC50 of CNCC(O)COc1cccc(-c2nc(N[C@@H]3CCOC3)c(C)c(-c3ccnc(-n4ccnc4)c3)n2)c1 (stereo partly drawn) when tested on human CARM1 (PRMT4) (Homo sapiens (Human)).
0.1 to 1 µM

Give IC50 for CNCC(O)COc1cccc(-c2nc(N[C@@H]3CCOC3)c(C)c(N(C)Cc3ccccn3)n2)c1 (stereo partly drawn) tested on human CARM1 (PRMT4) (Homo sapiens (Human)).
0.1 to 1 µM

Provide IC50, system human CARM1 (PRMT4) (Homo sapiens (Human)), entry CNCC(O)COc1cccc(-c2nc(N(C)C3CCOCC3)cc(N3CCN(C(C)=O)CC34CC4)n2)c1 (stereo not drawn)
0.1 to 1 µM

Give IC50 for this entry on human CARM1 (PRMT4) (Homo sapiens (Human)): CNCC(O)COc1cccc(-c2nc(N[C@@H]3CCOC3)c(C)c(-c3cnccn3)n2)c1 (stereo partly drawn)
0.1 to 1 µM

Recall the reported IC50 of CNCC(O)COc1cccc(-c2nc(-c3ccncc3)cc(N(C)C3CCN(C)CC3)n2)c1 (stereo not drawn) on human CARM1 (PRMT4) (Homo sapiens (Human)) and write it down.
0.1 to 1 µM

Give IC50; test system human CARM1 (PRMT4) (Homo sapiens (Human)); compound CNCC(O)COc1cc(-c2nc(N(C)C3CCOCC3)c(C)c(-n3cccn3)n2)cc(-n2cccn2)c1 (stereo not drawn)
0.1 to 1 µM

Tell me IC50 of CNCC(O)COc1cccc(-c2nc(NC3CCOCC3)c(C)c(N3CCN(S(C)(=O)=O)CC3)n2)c1 (stereo not drawn) when tested on human CARM1 (PRMT4) (Homo sapiens (Human)).
1 to 3 µM

Name the value of IC50 reported for CNCC(O)COc1cccc(-c2nc(C(=O)NC)cc(N(C)C3CCOCC3)n2)c1 (stereo not drawn) when tested on human CARM1 (PRMT4) (Homo sapiens (Human)).
0.1 to 1 µM

Please look at CNCC(O)COc1cccc(-c2nc(-c3ccn4cnnc4c3)c(C)c(-c3c(C)noc3C)n2)c1 (stereo not drawn) and tell me its recorded IC50 on human CARM1 (PRMT4) (Homo sapiens (Human)).
0.1 to 1 µM

With human CARM1 (PRMT4) (Homo sapiens (Human)) as the test system, provide measured IC50 for this compound: CNCC(O)COc1cc(Cl)cc(-c2nc(C(=O)N(C)C)cc(N(C)C3CCOCC3)n2)c1 (stereo not drawn)
0.1 to 1 µM

Using human CARM1 (PRMT4) (Homo sapiens (Human)) as the test system, report measured IC50 of CNCC(O)COc1cccc(-c2nc(N[C@H]3C[C@@H](C(=O)O)C3)c(C)c(-c3c(C)noc3C)n2)c1 (stereo partly drawn) .
1 to 3 µM

// fetch IC50; item: CCS(=O)(=O)N1CCN(c2cc(N(C)C3CCOCC3)nc(-c3cccc(OCC(O)CNC)c3)n2)C[C@@H]1C (stereo partly drawn) ; system: human CARM1 (PRMT4) (Homo sapiens (Human))
0.1 to 1 µM

Lab note: record IC50 of CNCC(O)COc1cccc(-c2nc(NC3COC3)cc(-c3c(C)noc3C)n2)c1 (stereo not drawn) tested on human CARM1 (PRMT4) (Homo sapiens (Human)).
0.1 to 1 µM

Give IC50 for this entry on human CARM1 (PRMT4) (Homo sapiens (Human)): CNCC(O)COc1cccc(-c2nc(NC3(C(=O)NC)CCOC3)c(C)c(-c3c(C)noc3C)n2)c1 (stereo not drawn)
3 to 10 µM

Find the measured IC50 of CNCC(O)COc1cccc(-c2nc(N[C@@H]3CC[C@H](C(=O)NC)C3)c(C)c(N3CCOCC3)n2)c1 (stereo partly drawn) with human CARM1 (PRMT4) (Homo sapiens (Human)) as test system.
0.1 to 1 µM

Quote human CARM1 (PRMT4) (Homo sapiens (Human)) IC50 for entry CNCC(O)COc1cccc(-c2nc(NC3CCOC3)c(C)c(C(=O)N(C)C3CCOCC3)n2)c1 (stereo not drawn) .
3 to 10 µM

Please indicate recorded IC50 of CNCC(O)COc1cccc(-c2nc(N[C@@H]3CCOC3)c(C)c(-c3cc[nH]n3)n2)c1 (stereo partly drawn) measured with human CARM1 (PRMT4) (Homo sapiens (Human)).
0.1 to 1 µM

Supply IC50 measured with human CARM1 (PRMT4) (Homo sapiens (Human)) for CNCC(O)COc1cccc(-c2nc(C(=O)NC3CCOCC3)cc(N(C)C3CCOCC3)n2)c1 (stereo not drawn) .
0.1 to 1 µM

Lab note: human CARM1 (PRMT4) (Homo sapiens (Human)) assay, enter IC50 for CNCC(O)COc1cccc(-c2nc(N[C@@H]3CCOC3)c(C)c(N3CCC[C@H]3COC)n2)c1 (stereo partly drawn) here
0.1 to 1 µM

State IC50 on human CARM1 (PRMT4) (Homo sapiens (Human)). Entry: CNCC(O)COc1cccc(-c2nc(N[C@@H]3CCOC3)c(C)c(N3CCN(C(C)=O)C4(CC4)C3)n2)c1 (stereo partly drawn)
0.1 to 1 µM

====

# Tested on: asymmetric di-methyl PABP1 in RKO cells
# procedure_summary: RKO methylation assay, In Cell Western (ICW) for asymmetric di-methyl PABP1
# Assay type: cell-based
# stated_conditions: Cellular potencies, ICW PABP1me2a
# Experimental: RKO adherent cells were purchased from ATCC (American Type Culture Collection), Manassas, Va., USA. […] First, the ratio for each well was determined by: Each plate included fourteen control wells of DMSO only treatment (minimum inhibition) as well as fourteen control wells for maximum inhibition treated with 20 μM of a reference compound. The average of the ratio values for each control type was calculated and used to determine the percent […] for each test well in the plate. […]
pIC50: −log10 of the molar value.
For each entry below, report its pIC50 value.

// fetch pIC50 given entry CNCC(O)COc1cccc(-c2nc(N[C@H]3CO[C@H]4OCC[C@H]43)c(C)c(N3CCOCC3)n2)c1 (stereo partly drawn) [Example 673-1a]
4.70 to 5.00

For the molecule CNCC(O)COc1cccc(-c2nc(N[C@H]3CO[C@H]4OCC[C@H]43)cc(N3CCOCC3)n2)c1 (stereo partly drawn) [Example 672-1a] , report pIC50.
4.70 to 5.00

Please look at this molecule and report its pIC50: CNC[C@@H](O)COc1ccc(Cl)c(-c2nc(-c3c(C)noc3C)c(C)c(N3Cc4c(C)nn(C)c4C3)n2)c1 [Example 237-3]
> 5.30
